List of melting point values.
// return numeric value only (unit: °C, not printed)

Would you please look over these solved cases?
MOLECULE	melting point / °C
Cc1cc(C)cc(C(=O)N2CC[C@@H](N3CCC(OC(=O)c4cc(Cl)cc(Cl)c4)CC3)C[C@@H]2Cc2ccccc2)c1 (racemic)	83.3
Cc1cc(C)cc(C(=O)N2CC[C@H](N3CCC(C(=O)O)(c4ccccc4)CC3)C[C@@H]2Cc2ccccc2)c1 (racemic)	259.1
COc1ccccc1C1(O)CCN([C@@H]2CCN(C(=O)c3cc(C)cc(C)c3)[C@@H](Cc3ccccc3)C2)CC1 (racemic)	213.1
O=C(c1cc(C(F)(F)F)cc(C(F)(F)F)c1)N1CC[C@@H](N2CCC(n3c(=O)[nH]c4ccccc43)CC2)C[C@@H]1Cc1ccccc1 (racemic)	156.1
Cc1cc(C)cc(C(=O)N2CC[C@H](N3CCC(NC(=O)c4ccccc4N)CC3)C[C@@H]2Cc2ccccc2)c1 (racemic)	121.1

// next item, melting point requested
Incoming: Given Cc1cc(C)cc(C(=O)N2CC[C@@H](N3CCC(NCCc4ccccc4)CC3)C[C@@H]2Cc2ccccc2)c1 (racemic) , state its recorded melting point.
Outgoing: 67.8
